test system: MS2 coat protein; test: apparent KD of MS2 coat protein; higher = weaker reporter binding; settings: Eterna round: R107; input ligand: tryptophan 2.4 mM
Known apparent KD of MS2 coat protein of a selection of sequences
Kindly write the number and append the unit.

Example sequences with recorded apparent KD of MS2 coat protein:
>>> recorded_result("AAACGCCACGGAAGGAGCGACAUGAGGAUCACCCAUGUAGAUUUGGCGGAUGCACCCUCCUGUCAGGUAGGUCGCCGUGCGCUAA [XArg-B24]")
"100 nM"
>>> recorded_result("AAUAUAAUAUAAAUAAUAAUAAUAUCUGAUACCAGACUCUCAUGUGUCCCUUGGCAGCAGUAACAUGAGGAUCACCCAUGUAAUA [JR_Nu_SSTheophyA_Sub027]")
"52 nM"
>>> recorded_result("GGGCUGUGACCAGGAAAUGGUCACAGCCCACGAGGACCGGUACGGCCGCCACUCGAAAGUACAUGAGGAUCACCCAUGUCGGUGG [#1 Same State - Tryptophan A Attempt #8 (HarryS)]")
"50.9 nM"

**Query** What does the record list as apparent KD of MS2 coat protein for UGUAUGGACUGAAGGAGCGGGUUGAUAACUUGAGGAUCACCCAGGUAAAAGGCGAAAGCCGCCCAGGUAGGUCGCAGUCCAUACU ?
**Result** 49.2 nM

**Query** What does the record list as apparent KD of MS2 coat protein for CUCAUCCACGCGGCCGCCACUAUAUUGUGGUGUGAAUGUGACGUAUUACAAGAGGAUCACCCUUGUAGGACCGGGCGUGGAUGAG [Tryp B Ex Mod1] ?
**Result** 147 nM

**Query** What does the record list as apparent KD of MS2 coat protein for AGAACCCAAGAGGAUACCAGAACGACAAUCAAAUCUUUUUACAUGAGGAUCACCCAUGUUUUCCCUUGGCAGCCUCAUGCACGAC [theeternabot_exclusion_MS2_Theo_B_43] ?
**Result** 59.6 nM
